Reported activity at 10 µM by item:
Target: GATA4–NKX2-5 transcriptional synergy (Mus musculus, UniProt P42582+Q08369)
Construct: expressed in transfected cells; host or cells: COS-1
Sequence (Q08369 whole entry): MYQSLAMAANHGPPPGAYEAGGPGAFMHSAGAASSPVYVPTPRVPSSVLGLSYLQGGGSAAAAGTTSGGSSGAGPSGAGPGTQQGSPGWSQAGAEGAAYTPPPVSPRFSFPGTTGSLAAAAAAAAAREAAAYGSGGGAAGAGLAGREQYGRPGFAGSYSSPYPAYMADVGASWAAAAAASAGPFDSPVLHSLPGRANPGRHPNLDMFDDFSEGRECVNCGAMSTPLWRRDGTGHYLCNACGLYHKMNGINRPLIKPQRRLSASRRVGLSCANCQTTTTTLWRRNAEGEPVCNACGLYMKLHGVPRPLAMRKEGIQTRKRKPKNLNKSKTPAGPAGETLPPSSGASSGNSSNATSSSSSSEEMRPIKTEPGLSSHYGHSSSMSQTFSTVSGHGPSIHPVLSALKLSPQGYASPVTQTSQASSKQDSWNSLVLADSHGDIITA
Sequence (P42582 whole entry): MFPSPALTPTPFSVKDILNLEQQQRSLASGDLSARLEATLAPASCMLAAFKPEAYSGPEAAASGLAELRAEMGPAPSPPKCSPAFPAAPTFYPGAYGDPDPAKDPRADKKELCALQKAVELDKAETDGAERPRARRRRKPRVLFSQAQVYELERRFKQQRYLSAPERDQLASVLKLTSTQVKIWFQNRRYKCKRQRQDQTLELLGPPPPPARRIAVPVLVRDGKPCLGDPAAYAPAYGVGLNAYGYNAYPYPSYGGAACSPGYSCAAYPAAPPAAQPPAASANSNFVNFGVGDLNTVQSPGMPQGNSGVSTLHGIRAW
Experiment: GATA4–NKX2-5 transcriptional synergy luciferase reporter assay (3xNKE reporter, COS-1 cells)
Assay type: cell-based
Conditions: 10 µM compound; GATA4–NKX2-5 transcriptional synergy reporter, COS-1 cells
Experimental: To screen compounds for the GATA4–NKX2-5 interaction, we have developed a luciferase reporter assay based on their property to activate gene transcription synergistically through the NKX2-5 binding site on DNA.[28] […] Raw luciferase data were analyzed in Excel, and clear outliers were removed from triplicates by using the Grubb’s test. […] Statistical significance of luciferase reporter assay data was evaluated by randomized block analysis of variance followed by Dunnett’s post hoc test. […]
Express the result in % but write the number alone.

INSERT INTO measurements (compound, units_text, value_measured) VALUES
  ('CCN(CC)c1ccc(NCc2c(-c3c(Cl)cccc3Cl)noc2C)cc1', '%', 92.8),
  ('CCN(CC)c1ccc(NC(=O)c2c(SC)nsc2SC)cc1 [Compound 47w]', '%', 112),
  ('O=C(Nc1ccc2oc(-c3ccccc3)cc(=O)c2c1)c1snnc1-c1ccccc1', '%', 94.9);

Query :: Consider the compound shown here: Cc1onc(-c2ccccc2Cl)c1C(=O)Nc1ccc2oc(-c3ccccc3)cc(=O)c2c1 What is its recorded activity at 10 µM?
Result :: 75.2

Query :: Consider the compound shown here: CCN(CC)c1ccc(NC(=O)c2csc3nnsc23)cc1 [Compound 47v] What is its recorded activity at 10 µM?
Result :: 132

Query :: Consider the compound shown here: Cc1onc(-c2ccccc2)c1CNc1ccc2oc(-c3ccccc3)cc(=O)c2c1 What is its recorded activity at 10 µM?
Result :: 99.6

Query :: Consider the compound shown here: CCN(CC)c1ccc(NCc2c[nH]nc2-c2ccc(F)cc2)cc1 What is its recorded activity at 10 µM?
Result :: 82.3

Query :: Consider the compound shown here: CCN(CC)c1ccc(-n2c(=O)c3c(C)onc3c3ccccc32)cc1 What is its recorded activity at 10 µM?
Result :: 100

Query :: Consider the compound shown here: CCc1noc(C)c1C(=O)Nc1ccc2oc(-c3ccccc3)cc(=O)c2c1 What is its recorded activity at 10 µM?
Result :: 97.4
